Reported herbicide rating (0-9) values are given for each entry in this list.
- Tested on: Barnyardgrass, Echinochloa crus-galli
- assay.notes: Postemergence herbicidal evaluation, ECHCG
- Assay type: in vivo, (L.) Beau
- test.conditions: 0.0630 kg/ha
Output: the number by itself.

Recorded results for 5 compounds are shown here.
{"columns": ["compound", "readout", "test.result"],
 "data": [
  ["Cn1c(C(F)(F)F)cc(=O)n(-c2ccc3onc(-c4ccccc4)c3c2)c1=O [Compound 25]", "herbicide rating (0-9)", 2.0],
  ["Cn1c(C(F)(F)F)cc(=O)n(-c2ccc3snc(Br)c3c2)c1=O [Compound 36]", "herbicide rating (0-9)", 1.0],
  ["COC(=O)C(C)Oc1ccc(C(C)C)cc1-c1nsc2ccc(-n3c(=O)cc(C(F)(F)F)n(C)c3=O)cc12 (centres unmarked) [Compound 30]", "herbicide rating (0-9)", 9.0],
  ["Cc1ccc(OCC(=O)OCCN(C)C)c(-c2nsc3ccc(-n4c(=O)cc(C(F)(F)F)n(C)c4=O)cc23)c1 [Compound 70]", "herbicide rating (0-9)", 9.0],
  ["Cc1ccc(OCC(=O)n2cnc3ccccc32)c(-c2nsc3ccc(-n4c(=O)cc(C(F)(F)F)n(C)c4=O)cc23)c1 [Compound 62]", "herbicide rating (0-9)", 9.0]
]}

Here is the next item to consider.
Notebook: COC(=O)COc1c(C)cc(C)cc1-c1nsc2ccc(-n3c(=O)cc(C(F)(F)F)n(C)c3=O)cc12 [Compound 26] , herbicide rating (0-9) read as 9.0

* * *

- Tested on: GALAP
- assay.notes: Preemergence herbicidal evaluation
- Type: in vivo
- Design: scale not given here
- test.conditions: 0.0313-0.0320 kg/ha
- Description: The preemergence and postemergence herbicidal properties of certain compounds of the present invention are compared with certain compounds disclosed in U.S. Pat. Nos. 5,484,763 and 5,523,278. The evaluations are performed as described in Examples 185 and 186. Data in Tables V and VI are reported by the compound number given in Example 185 for the compounds of this invention or by comparative compound letter for the compounds disclosed in U.S. Pat. Nos. 5,484,763 and 5,523,278.
Reported herbicidal effect rating values are given for each entry in this list.
Output: the number by itself.

Recorded results for 3 molecules are shown here.
{"columns": ["smiles.str", "herbicidal effect rating"],
 "data": [
  ["CN(C)C(=O)c1nsc2ccc(-n3c(=O)cc(C(F)(F)F)n(C)c3=O)cc12", 1.0],
  ["O=C1C2=C(CCCC2)C(=O)N1c1ccc2snc(-c3ccccc3)c2c1", 5.5],
  ["Cc1nsc2ccc(N3C(=O)C4=C(CCCC4)C3=O)cc12", 0.0]
]}

Here is the next item to consider.
Notebook: Cn1c(C(F)(F)F)cc(=O)n(-c2ccc3snc(-c4ccccc4)c3c2)c1=O , herbicidal effect rating read as 9.0

* * *

- Test system: Barnyardgrass, Echinochloa crus-galli
- assay.notes: Postemergence herbicidal evaluation, ECHCG
- Assay type: in vivo, (L.) Beau
- test.conditions: 0.0630 kg/ha
readout: herbicide rating (0-9)
Output: the number by itself.

{"columns": ["compound", "herbicide rating (0-9)"],
 "data": [
  ["COC(=O)C(C)Oc1ccc(C)cc1-c1nsc2ccc(-n3c(=O)cc(C(F)(F)F)n(C)c3=O)cc12 (stereo not shown)", 9.0],
  ["CCC(CC)OC(=O)COc1ccc(C)cc1-c1nsc2ccc(-n3c(=O)cc(C(F)(F)F)n(C)c3=O)cc12", 9.0],
  ["Cc1ccc(OCC(=O)OCc2ccccn2)c(-c2nsc3ccc(-n4c(=O)cc(C(F)(F)F)n(C)c4=O)cc23)c1", 9.0],
  ["Cc1nsc2ccc(-n3c(=O)cc(C(F)(F)F)n(C)c3=O)cc12", 1.5],
  ["Cc1ccc(OC(C)C(=O)OC(C)C)c(-c2nsc3ccc(-n4c(=O)cc(C(F)(F)F)n(C)c4=O)cc23)c1 (stereo not shown)", 7.0]
]}

Notebook: C=CCOC(=O)C(C)Oc1ccc(C)cc1-c1nsc2ccc(-n3c(=O)cc(C(F)(F)F)n(C)c3=O)cc12 (stereo not shown) , herbicide rating (0-9) read as 9.0

Notebook: C=CCOc1ccc(C)cc1-c1nsc2ccc(-n3c(=O)cc(C(F)(F)F)n(C)c3=O)cc12 , herbicide rating (0-9) read as 1.0
